The reported numbers originate from patent US12509453B2.

# TARGET SYSTEM: BRM (Homo sapiens, UniProt P51531)
# Construct: made in house; host or cells: High Five insect cells
# Sequence (P51531 whole entry): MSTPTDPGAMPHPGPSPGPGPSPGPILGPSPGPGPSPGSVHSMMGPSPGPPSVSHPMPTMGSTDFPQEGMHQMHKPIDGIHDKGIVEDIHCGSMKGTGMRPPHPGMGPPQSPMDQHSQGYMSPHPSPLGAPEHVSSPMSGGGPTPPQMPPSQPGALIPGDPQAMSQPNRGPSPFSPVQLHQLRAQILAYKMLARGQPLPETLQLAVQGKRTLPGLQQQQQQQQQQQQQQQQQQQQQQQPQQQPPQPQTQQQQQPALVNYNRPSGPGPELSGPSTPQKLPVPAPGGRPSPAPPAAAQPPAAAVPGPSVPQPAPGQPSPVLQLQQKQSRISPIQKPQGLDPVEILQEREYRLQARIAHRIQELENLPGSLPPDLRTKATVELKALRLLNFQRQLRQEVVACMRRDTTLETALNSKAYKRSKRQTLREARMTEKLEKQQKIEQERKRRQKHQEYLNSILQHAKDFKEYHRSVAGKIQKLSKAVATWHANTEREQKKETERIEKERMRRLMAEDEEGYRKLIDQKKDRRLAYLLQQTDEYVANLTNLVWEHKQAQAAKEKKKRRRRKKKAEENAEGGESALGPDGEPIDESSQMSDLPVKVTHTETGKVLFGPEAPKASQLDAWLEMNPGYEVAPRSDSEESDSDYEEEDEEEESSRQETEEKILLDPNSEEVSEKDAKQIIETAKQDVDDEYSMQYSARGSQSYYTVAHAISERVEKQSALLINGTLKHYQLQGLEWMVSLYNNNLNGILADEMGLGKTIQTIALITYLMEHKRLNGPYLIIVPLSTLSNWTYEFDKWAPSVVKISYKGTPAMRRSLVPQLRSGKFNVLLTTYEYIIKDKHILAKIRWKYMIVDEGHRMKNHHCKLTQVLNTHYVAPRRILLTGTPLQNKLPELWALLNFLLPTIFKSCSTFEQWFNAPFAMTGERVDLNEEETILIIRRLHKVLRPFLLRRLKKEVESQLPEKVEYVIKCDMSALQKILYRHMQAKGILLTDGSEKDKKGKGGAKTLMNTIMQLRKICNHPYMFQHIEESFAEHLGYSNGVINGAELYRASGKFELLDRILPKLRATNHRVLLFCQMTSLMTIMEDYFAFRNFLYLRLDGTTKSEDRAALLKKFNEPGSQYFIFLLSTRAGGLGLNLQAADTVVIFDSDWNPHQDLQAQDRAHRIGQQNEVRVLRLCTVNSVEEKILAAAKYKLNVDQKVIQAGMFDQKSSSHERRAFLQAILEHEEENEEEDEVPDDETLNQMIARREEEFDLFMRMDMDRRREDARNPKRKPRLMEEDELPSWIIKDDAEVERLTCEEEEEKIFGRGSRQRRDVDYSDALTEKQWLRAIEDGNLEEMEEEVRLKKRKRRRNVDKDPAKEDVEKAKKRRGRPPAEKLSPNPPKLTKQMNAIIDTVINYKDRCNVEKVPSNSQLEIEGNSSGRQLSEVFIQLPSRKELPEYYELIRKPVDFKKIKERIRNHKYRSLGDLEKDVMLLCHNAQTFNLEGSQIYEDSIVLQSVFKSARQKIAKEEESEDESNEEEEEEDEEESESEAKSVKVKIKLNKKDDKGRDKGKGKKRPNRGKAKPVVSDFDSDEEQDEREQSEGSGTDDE
# METHOD SUMMARY: ATPase catalytic activity assay (ADP-Glo), BRM
# Assay type: biochemical
# TEST PARAMETERS: 30 nM BRM, 400 μM ATP
Each item that follows carries a reported BRM Max % Inhibition.
MEASURED ATTRIBUTE: BRM Max % Inhibition

{"columns": ["SMILES RECORD", "MEASURED ATTRIBUTE", "OBSERVED RESULT"],
 "data": [
  ["C[C@@H]1CN(c2cccc(-c3csc(NC(=O)CNC(=O)c4cn(S(C)(=O)=O)c5c4CCCC5)n3)c2)C[C@H](C)O1", "BRM Max % Inhibition", ">90%"],
  ["Cc1cc(-c2cccc(-c3csc(NC(=O)CNC(=O)c4cc(CO)n(S(=O)(=O)C(C)C)c4)n3)c2)cc(C)n1", "BRM Max % Inhibition", ">95%"],
  ["CC(C)S(=O)(=O)n1cc(C(=O)NCC(=O)Nc2nc(-c3cccc(N4C[C@@H](C)O[C@@H](C)C4)c3)cs2)cc1Cl", "BRM Max % Inhibition", ">90%"]
]}
